B1: glmS ribozyme (parent)
chain: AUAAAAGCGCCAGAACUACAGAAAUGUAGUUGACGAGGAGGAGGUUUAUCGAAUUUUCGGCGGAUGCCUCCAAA

Variants of: B1
Assay: self-cleavage kobs at 2500 uM GlcN6P; higher = faster cleavage; RNA array
Conditions: with glucosamine-6-phosphate
This sample holds only a part of the variants without activity.
# reported self-cleavage kobs at 2500 uM GlcN6P; entries follow
# output: bare number, implied unit s⁻¹

The examples below pair each entry with its known result.
>  <variantName>
G29A G40C

>  <resultUnit>
s⁻¹

>  <self-cleavage kobs at 2500 uM GlcN6P>
0.000243

$$$$
>  <variantName>
A15U G29A

>  <resultUnit>
s⁻¹

>  <self-cleavage kobs at 2500 uM GlcN6P>
0.00039

$$$$
>  <variantName>
U45A U69A

>  <resultUnit>
s⁻¹

>  <self-cleavage kobs at 2500 uM GlcN6P>
0.000129

$$$$
>  <variantName>
U30G C58A

>  <resultUnit>
s⁻¹

>  <self-cleavage kobs at 2500 uM GlcN6P>
0.000154

$$$$
>  <variantName>
A14U G40C U46C A53G C71G

>  <resultUnit>
s⁻¹

>  <self-cleavage kobs at 2500 uM GlcN6P>
0.00101

$$$$

Q: Given A12C U54G C68G , respond with its self-cleavage kobs at 2500 uM GlcN6P.
A: 5.51e-05

Q: Given G29A U56A , respond with its self-cleavage kobs at 2500 uM GlcN6P.
A: 0.000941

Q: Given C50G U65A , respond with its self-cleavage kobs at 2500 uM GlcN6P.
A: 0.000972
